tested on: KRAS PDC tumor spheroids (HUVEC+MSC), viability; test: Anticancer human tumor 254851-301-R-J1-PDC patient-derived colon carcinoma cell line growth inhibition [KRAS2]; settings: second compound 0.1 µM; first compound 0.001 µM; active compounds read low;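 note: spheroids exposed to compounds for seven days before readout; 100% = DMSO vehicle control luminescence of the spheroids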
Catalogue of viability, T/C readings, one per entry.
The reply should be a number in %, with the unit left off.

Solved cases (4 shown):
- compound: "CC(=O)Nc1cccc(-n2c(=O)n(C3CC3)c(=O)c3c(Nc4ccc(I)cc4F)n(C)c(=O)c(C)c32)c1 + C=CC(=O)N1CCN(c2nc(=O)n(-c3c(C)ccnc3C(C)C)c3nc(-c4c(O)cccc4F)c(F)cc23)C(C)C1"
  output unit: "%"
  viability, T/C: 89.5
- compound: "CC(C)n1nc(-c2ccc3oc(N)nc3c2)c2c(N)ncnc21 + COc1cc2nc(C)nc(NC(C)c3cc(N)cc(C(F)(F)F)c3)c2cc1OC1CCOC1"
  output unit: "%"
  viability, T/C: 118
- compound: "CC(C)n1nc(-c2ccc3oc(N)nc3c2)c2c(N)ncnc21 + C=CC(=O)N1CCN(c2nc(OCC3CCCN3C)nc3c2CCN(c2cccc4cccc(C)c24)C3)CC1CC#N"
  output unit: "%"
  viability, T/C: 115
- compound: "CC(C)n1nc(-c2ccc3oc(N)nc3c2)c2c(N)ncnc21 + C=CC(=O)N1CCN(c2nc(=O)n(-c3c(C)ccnc3C(C)C)c3nc(-c4c(O)cccc4F)c(F)cc23)C(C)C1"
  output unit: "%"
  viability, T/C: 110

Let's switch to this compound now.
Input line: Would you mind telling me what viability, T/C value was observed for CC(=O)Nc1cccc(-n2c(=O)n(C3CC3)c(=O)c3c(Nc4ccc(I)cc4F)n(C)c(=O)c(C)c32)c1 + COc1cc2nc(C)nc(NC(C)c3cc(N)cc(C(F)(F)F)c3)c2cc1OC1CCOC1 ?
Output line: 90.6
